Target: c-KIT kinase enzyme (Homo sapiens, UniProt P10721)
Construct: cKIT (6.25 μM) (catalytic domain, N-terminal GST tagged, unphosphorylated)
Sequence (P10721 589-937 limits assumed): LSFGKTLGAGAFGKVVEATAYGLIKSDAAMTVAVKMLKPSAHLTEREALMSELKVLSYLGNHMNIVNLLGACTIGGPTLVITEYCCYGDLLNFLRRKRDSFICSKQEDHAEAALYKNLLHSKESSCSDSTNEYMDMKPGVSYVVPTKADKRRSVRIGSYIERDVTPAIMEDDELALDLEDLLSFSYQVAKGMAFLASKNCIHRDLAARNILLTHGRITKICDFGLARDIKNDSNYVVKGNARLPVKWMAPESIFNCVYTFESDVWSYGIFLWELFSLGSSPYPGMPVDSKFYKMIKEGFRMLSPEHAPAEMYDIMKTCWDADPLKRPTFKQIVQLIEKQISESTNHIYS
Test: cKIT Homogeneous Time Resolved Fluorescent (HTRF) kinase assay
Settings: inhibition of the c-KIT kinase enzyme
pIC50: −log10 of the molar value.
The reader will find reported pIC50 values listed item by item below.

> print(dat)
                              record.smiles  result.value
1  Cc1ccn(-c2cccc(C(F)(F)F)c2)c(=O)c1C#Cc1cnc(N)nc1        ≥ 7.00

// pIC50 value for `Cc1ccn(-c2ccc3c(c2)CCO3)c(=O)c1C#Cc1cnc(N)nc1` : ≥ 7.00

Summary for this compound, `CC(=O)N1CC(C)(C)c2ccc(-n3ccc(C)c(C#Cc4cnc(N)nc4)c3=O)cc21` : pIC50 is ≥ 7.70

The recorded pIC50 for entry `Cc1ccn(-c2ccc3c(c2)NCC3(C)C)c(=O)c1C#Cc1cnc(N)nc1` equals ≥ 8.00

response.value for `Cc1ccc(-n2ccc(C)c(C#Cc3cnc(N)nc3)c2=O)cc1C` (field: pIC50) = ≥ 8.00

Form field pIC50, entry `Cc1ccn(-c2cccc(OC(F)(F)F)c2)c(=O)c1C#Cc1cnc(N)nc1` : ≥ 7.00

All values here come from patent US7893061B2.
